- Tested on: XF 498 CNS
- protocolDetails: NCI tumour cell line growth inhibition, 48 h
TGI: recorded values
Report the value in µM with no unit label.

# count of solved cases: 2
{"molecule": "Cc1cc(Cl)cc2c1NC(=O)C2=O (tested in a mixture with another compound)", "quantityUnit": "µM", "testValue": 62.4}
{"molecule": "COc1ccc(CCc2cc(OC)c(OC)c(OC)c2)cc1", "quantityUnit": "µM", "testValue": 20.6}

Query :: Provide the documented TGI with XF 498 CNS as the system for C[C@@H]1C[C@]2(C[C@@H](C)C3[C@@H](CC4(C)[C@@H]5CCC6C(C)(C)OC(=O)C=C[C@]67C[C@@]5(CC[C@]34C)OO7)O2)OC1=O (some centres undefined)
Result :: 73.9

Query :: Provide the documented TGI with XF 498 CNS as the system for "CCSC(SCC)=C1C(=O)N(c2ccccc2)N=C1C"
Result :: 22.7

Query :: Provide the documented TGI with XF 498 CNS as the system for O=C(c1ccc(Cl)cc1)C1OC12C(=O)Nc1ccccc12 (centres undefined)
Result :: 25

====

TGI: recorded values
- System: A498 renal
- protocolDetails: NCI tumour cell line growth inhibition, 48 h

# count of solved cases: 3
{"molecule": "CCOP(=O)(OCC)C(C)(CC)NC(=O)C(C(F)(F)F)C(F)(F)F (configuration not stated)", "testSystem": "A498 renal", "TGI": "> 100 µM"}
{"molecule": "CC1CC2(C)CC(=O)C1C1C(=O)N(CCN3CCCCC3)C(=O)C12 (configuration not stated)", "testSystem": "A498 renal", "TGI": "> 100 µM"}
{"molecule": "Cc1cc2c(c(=O)n1C)SCC2", "testSystem": "A498 renal", "TGI": "> 100 µM"}

Query :: Please give the measured TGI for this molecule: "O=c1[nH]c2ccccc2n1-c1n[nH]c2ccccc12"
Result :: > 100 µM

Query :: Please give the measured TGI for this molecule: "Cc1cc(Cl)ccc1NS(=O)(=O)c1ccc(-c2cnc(C3CC3)o2)cc1"
Result :: 0.841 µM

====

- System: EKVX NSCLC
- protocolDetails: NCI tumour cell line growth inhibition, 48 h
readout: TGI

{"compound": "O=C1c2ccccc2-c2[nH]c3cn[nH]c(=O)c3c21", "testSystem": "EKVX NSCLC", "TGI": "> 100 µM"}
{"compound": "N=C1C=C(N)C(=O)c2[nH]c(=O)ccc21", "testSystem": "EKVX NSCLC", "TGI": "3.55 µM"}
{"compound": "CCCCCCCCCCCCCc1nn[nH]n1", "testSystem": "EKVX NSCLC", "TGI": "52 µM"}
{"compound": "CC1(C2CCC3(C)OC3C2)CO1 (stereo not drawn)", "testSystem": "EKVX NSCLC", "TGI": "> 100 µM"}

Query :: Please give the measured TGI for this compound: "O=C1C=CC(=O)c2c(O)c(N3CCN(CCOCCO)CC3)c(Cl)c(O)c21"
Result :: 4.4 µM [middle of 4 runs]

====

- Tested on: OVCAR-4 ovarian
- protocolDetails: NCI tumour cell line growth inhibition, 48 h
readout: TGI

# count of solved cases: 4
{"molecule": "O=C(NNCc1ccc(Cl)cc1)Nc1cccc2ccccc12", "TGI": "> 100 µM"}
{"molecule": "Cc1ccccc1OC(C)C(=O)NN1C(=O)CC(=O)N(c2ccccc2)C1=S (centres undefined)", "TGI": "> 100 µM"}
{"molecule": "COC(=O)/C(=N\\NC(N)=S)C(C#N)c1ccccc1 (centres undefined)", "TGI": "> 100 µM"}
{"molecule": "Oc1ccc(Cl)cc1Cc1cc(Cl)ccc1O", "TGI": "11.9 µM"}

Query :: Please give the measured TGI for this molecule: COc1ccc(CCN=C2CCC(C(=O)NCCc3ccc(OC)c(OC)c3)N2)cc1OC (centres undefined)
Result :: > 100 µM

Query :: Please give the measured TGI for this molecule: "S=c1nc(-c2ccnc(-c3nc(=S)[nH][nH]3)c2)[nH][nH]1"
Result :: > 100 µM

Query :: Please give the measured TGI for this molecule: NCCOCC(N)C(=O)O (centres undefined)
Result :: > 100 µM

Query :: Please give the measured TGI for this molecule: "Cc1cc2c(c(=O)n1C)SCC2"
Result :: > 100 µM

Query :: Please give the measured TGI for this molecule: "C/C(Nc1ccc(Cl)cc1Cl)=C1/CCOC1=O"
Result :: > 100 µM

Query :: Please give the measured TGI for this molecule: CC(=O)Oc1ccc2c(c1)CC[C@@H]1C2CC[C@]2(C)C(=O)NC(=O)CC12 (some centres undefined)
Result :: > 100 µM

Query :: Please give the measured TGI for this molecule: C=CC1CN2CCC1CC2C(O)c1ccnc2ccccc12 (centres undefined)
Result :: > 100 µM

Values were extracted from PubChem BioAssay (NCI).
